SYSTEM NAME: human Opioid Receptor Delta 1 (Opiate D1), OPRD1 (gene 4985) (UniProt P41143)
Sequence (P41143 whole entry, looked up): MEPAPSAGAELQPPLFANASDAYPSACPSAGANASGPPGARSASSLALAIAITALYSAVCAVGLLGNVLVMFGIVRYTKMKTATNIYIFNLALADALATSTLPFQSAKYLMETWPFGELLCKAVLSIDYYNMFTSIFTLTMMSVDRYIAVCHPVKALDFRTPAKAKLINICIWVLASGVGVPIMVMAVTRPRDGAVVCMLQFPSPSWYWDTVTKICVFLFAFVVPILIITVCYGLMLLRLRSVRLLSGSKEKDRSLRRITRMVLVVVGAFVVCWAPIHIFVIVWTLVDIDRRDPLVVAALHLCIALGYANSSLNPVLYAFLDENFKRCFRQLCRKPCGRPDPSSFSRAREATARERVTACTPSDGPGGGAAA
ASSAY OVERVIEW: NVS_GPCR_hOpiate_D1: NovaScreen (NVS) G Protein-Coupled Receptor Assay for human Opioid Receptor Delta 1 (Opiate D1) (AID 2283280)
Results filed as inconclusive are left out. The source made the active and inactive calls. Rule for the calls: active = hit-call score of the fitted dose curve at least 0.9, where 1 is the maximum; inconclusive = response in the unintended direction; inactive = score below 0.9.
Your response should consist of one outcome taken from active, inactive

Use these answered entries as a reference point.
1. O=C(O)c1ccc2c(c1)nc(C(=O)NC1CCN(C3CC3)CC1)n2Cc1cc(-c2ccc(Cl)s2)on1 : inactive
2. c1ccc(C(O[C@@H]2CCCN(CCc3ccc4c(c3)OCO4)C2)c2ccccc2)cc1 : active

Can you look up the reported call for CCCCCCCCCCCCCCCCOS(=O)(=O)O for me?
active

Can you look up the reported call for C=CCc1cc(S(=O)(=O)c2ccc(O)c(CC=C)c2)ccc1O for me?
active

====

Read-out: Human Leukocyte Antigen - DR isotype (HLADR), HLA-DRA (gene 3122)
ASSAY OVERVIEW: BSK_CASM3C_HLADR: BioMAP Diversity Plus: CASM3C Assay for Human Leukocyte Antigen - DR isotype (HLADR) Biomarker Activity (AID 2283043);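 note: cell-surface HLA-DR protein level quantified by ELISA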
TEST CONTEXT: primary human coronary artery smooth muscle cells; actives raise or lower the signal
Calls of active or inactive are those of the source. How the source made its calls: active means hit-call score of the fitted dose curve at least 0.9, where 1 is the maximum; inactive means score below 0.9.
Your response should consist of one outcome taken from active, inactive

1. CC1(C)C(=O)N(Cl)C(=O)N1Cl : inactive
2. Cn1c(=O)c2[nH]cnc2n(C)c1=O : inactive

Can you look up the reported call for CCCCCCCCN(C)C for me?
inactive

Can you look up the reported call for OC(CCl)CCl for me?
inactive

Can you look up the reported call for COCc1nnc(-c2ccc[n+]([O-])c2)n1-c1c(Cl)c(Cl)cc2[nH]c(=O)c(=O)[nH]c12 for me?
inactive

Can you look up the reported call for Cc1nc(-c2ccccn2)ncc1C(=O)Nn1cc(C)c2cc(F)ccc21 for me?
inactive

Can you look up the reported call for NC(=O)N1c2ccccc2C=Cc2ccccc21 for me?
inactive

Can you look up the reported call for O=C(O)[C@H](O)[C@@H](O)C(=O)O for me?
inactive

Can you look up the reported call for CCCCCCCCCCCCCCCCOS(=O)(=O)O for me?
inactive

Can you look up the reported call for CC[C@H](C)C(=O)O[C@H]1C[C@H](O)C=C2C=C[C@H](C)[C@H](CC[C@@H](O)C[C@@H](O)CC(=O)O)[C@H]21 for me?
inactive

Can you look up the reported call for O=S(=O)(O)CCC(F)(F)C(F)(F)C(F)(F)C(F)(F)C(F)(F)C(F)(F)F for me?
inactive

Can you look up the reported call for CC(C)c1nnc2ccc(-c3ocnc3-c3cc(F)ccc3F)cn12 for me?
active

====

Read-out: Vascular cell adhesion molecule 1 (VCAM1), VCAM1 (gene 7412)
ASSAY OVERVIEW: BSK_hDFCGF_VCAM1: BioMAP Diversity Plus: hDFCGF Assay for Vascular cell adhesion molecule 1 (VCAM1) Biomarker Activity (AID 2283065)
TEST CONTEXT: primary human foreskin fibroblasts; actives raise or lower the signal
Protocol: BSK_hDFCGF is a cell-based, multiplexed-readout assay that uses foreskin fibroblast, a human skin primary cell, with measurements taken at 24 hours after chemical dosing in a 96-well plate.BSK_hDFCGF_VCAM1 is an assay component measured in the BSK_hDFCGF assay. It measures VCAM-1 antibody related to regulation of gene expression using ELISA technology.Data from the assay component BSK_hDFCGF_VCAM1 was analyzed into 1 assay endpoint. […]
Active and inactive are the calls of the source. How the source made its calls: active means hit-call score of the fitted dose curve at least 0.9, where 1 is the maximum; inactive means score below 0.9.
Your response should consist of one outcome taken from active, inactive

Use these answered entries as a reference point.
1) CCCCCCCCCCCCCCCCOS(=O)(=O)O : active
2) CCCCCCCCCCCCCCO : active

Can you look up the reported call for CCOC(N)=O for me?
inactive

Can you look up the reported call for O=S(=O)(O)CCC(F)(F)C(F)(F)C(F)(F)C(F)(F)C(F)(F)C(F)(F)F for me?
inactive

Can you look up the reported call for CC(C)CC(C)O (stereo not given) for me?
inactive
